Below, each of the binders is paired with its reported optical density value.
Target: T1, Goat anti-Human Kappa
T1 construct: Positive control of the ELISA; also called biotinylated goat anti-human kappa light chain
Experiment: ELISA, positive control; note: test concentration or dose not given here
All answers are understood in OD, so give the number only.

{"Binder": "369_E11 (antibody, V domains shown) VH: EVQLLESGGGLVQPGGSLRLSCAASGFTFSSYGMNWVRQAPGKGLEWVSNINYNGGYTSYADSVKGRFTISRDNSKNTLYLQMNSLRAEDTAVYYCARSANWHDTALDYWGQGTLVTVSS VL: DIQMTQSPSSLSASVGDRVTITCRASQSIISYLNWYQQKPGKAPKLLIYAATSLASGVPSRFSGSGSGTDFTLTISSLQPEDFATYYCQQSYDTPLTFGGGTKVEIK", "optical density [OD]": 3.69}
{"Binder": "373_C11 (antibody, V domains shown) VH: EVQLLESGGGLVQPGGSLRLSCAASGFTFSSYSMNWVRQAPGKGLEWVSGINYNSGYTGYADSVKGRFTISRDNSKNTLYLQMNSLRAEDTAVYYCARSANWHDTALDYWGQGTLVTVSS VL: DIQMTQSPSSLSASVGDRVTITCRASQSILTYVNWYQQKPGKAPKLVIYAVTSRASGVPSRFSGSGSGTDFTLTISSLQPEDFATYYCQQSYETPLTFGGGTKVEIK", "optical density [OD]": 3.17}
{"Binder": "368_B01 (antibody, V domains shown) VH: EVQLLESGGGLVQPGGSLRLSCAASGFTFSSYGMNWVRQAPGKGLEWVSGINYNSGYKSYADSVKGRFTISRDNSKNTLYLQMNSLRAEDTAVYYCARSANWHDTALDYWGQGTLVTVSS VL: DIQMTQSPSSLSASVGDRVTITCRASQSISSYLNWYQQKPGKAPKLLIYAATSRASGVPSRFSGSGSGTDFTLTISSLQPEDFATYYCQQSYETPLTFGGGTKVEIK", "optical density [OD]": 3.71}
{"Binder": "369_C04 (antibody, V domains shown) VH: EVQLLESGGGLVQPGGSLRLSCAASGFTFSSYSMNWVRQAPGKGLEWVSNINYNGGYTGYADSVKGRFTISRDNSKNTLYLQMNSLRAEDTAVYYCARSANWHDTALDYWGQGTLVTVSS VL: DIQMTQSPSSLSASVGDRVTITCRASQSILTYVNWYQQKPGKAPKLLIYTTTSLHSGVPSRFSGSGSGTDFTLTISSLQPEDFATYYCQQSYNNPLTFGGGTKVEIK", "optical density [OD]": 2.46}
{"Binder": "374_D08 (antibody, V domains shown) VH: EVQLLESGGGLVQPGGSLRLSCAASGFTFDSYGMNWVRQAPGKGLEWVSGINYNSGYTGYADSVKGRFTISRDNSKNTLYLQMNSLRAEDTAVYYCARSANWHDTHLDYWGQGTLVTVSS VL: DIQMTQSPSSLSASVGDRVTITCRASQSILTYLNWYQQKPGKAPKLLIYAATSRHSGVPSRFSGSGSGTDFTLTISSLQPEDFATYYCQQSYESPLTFGGGTKVEIK", "optical density [OD]": 3.02}
{"Binder": "368_G12 (antibody, V domains shown) VH: EVQLLESGGGLVQPGGSLRLSCAASGFTFSSYGMNWVRQAPGKGLEWVASINYNSGYTGYADSVKGRFTISRDNSKNTLYLQMNSLRAEDTAVYYCARSANWHDTALDYWGQGTLVTVSS VL: DIQMTQSPSSLSASVGDRVTITCRASQSISSYVNWYQQKPGKAPKLVIYAVTSRASGVPSRFSGSGSGTDFTLTISSLQPEDFATYYCQQSYETPLTFGGGTKVEIK", "optical density [OD]": 3.52}
{"Binder": "370_G02 (antibody, V domains shown) VH: EVQLLESGGGLVQPGGSLRLSCAASGFTFSDYSMNWVRQAPGKGLEWVANINYNGGYKGYADSVKGRFTISRDNSKNTLYLQMNSLRAEDTAVYYCARSANWHDTALDYWGQGTLVTVSS VL: DIQMTQSPSSLSASVGDRVTITCRASQSIVSYLNWYQQKPGKAPKLLIYAATSRHSGVPSRFSGSGSGTDFTLTISSLQPEDFATYYCQQSYDSPLTFGGGTKVEIK", "optical density [OD]": 3.62}
{"Binder": "367_G06 (antibody, V domains shown) VH: EVQLLESGGGLVQPGGSLRLSCAASGFTFSSYGMNWVRQAPGKGLEWVSGINYNSGYKSYADSVKGRFTISRDNSKNTLYLQMNSLRAEDTAVYYCARSANWHDTHLDYWGQGTLVTVSS VL: DIQMTQSPSSLSASVGDRVTITCRASQSILTYVNWYQQKPGKAPKLLIYATTSLHSGVPSRFSGSGSGTDFTLTISSLQPEDFATYYCQQSYDTPLTFGGGTKVEIK", "optical density [OD]": 3.35}

input: Endpoint output: optical density of 371_A12 (antibody, V domains shown) VH: EVQLLESGGGLVQPGGSLRLSCAASGFTFDSYSMNWVRQAPGKGLEWVAGINYNSGYTSYADSVKGRFTISRDNSKNTLYLQMNSLRAEDTAVYYCARSANWHDTALDYWGQGTLVTVSS VL: DIQMTQSPSSLSASVGDRVTITCRASQSILSYVNWYQQKPGKAPKLVIYAATSLASGVPSRFSGSGSGTDFTLTISSLQPEDFATYYCQQSYDTPLTFGGGTKVEIK . Value?
output: 3.63

input: Do the same for 367_G10 (antibody, V domains shown) VH: EVQLLESGGGLVQPGGSLRLSCAASGFTFDDYGMNWVRQAPGKGLEWVSGINYNGGYTSYADSVKGRFTISRDNSKNTLYLQMNSLRAEDTAVYYCARSANWHDTALDYWGQGTLVTVSS VL: DIQMTQSPSSLSASVGDRVTITCRASQSIISYVNWYQQKPGKAPKLLIYAATSRASGVPSRFSGSGSGTDFTLTISSLQPEDFATYYCQQSYDSPLTFGGGTKVEIK please
output: 3.45

Each recorded value in this set is attributed to patent US20210380703A1.
